Provenance of the data: patent US7994172B2

Target: human p70S6 kinase (p70S6K, kinase domain residues 1-421, T412E mutation) (Homo sapiens, UniProt P23443, T412E)
Construct: human p70S6 kinase domainresidues 1-421, containing a T412E mutation
Sequence (P23443 1-421 T412E): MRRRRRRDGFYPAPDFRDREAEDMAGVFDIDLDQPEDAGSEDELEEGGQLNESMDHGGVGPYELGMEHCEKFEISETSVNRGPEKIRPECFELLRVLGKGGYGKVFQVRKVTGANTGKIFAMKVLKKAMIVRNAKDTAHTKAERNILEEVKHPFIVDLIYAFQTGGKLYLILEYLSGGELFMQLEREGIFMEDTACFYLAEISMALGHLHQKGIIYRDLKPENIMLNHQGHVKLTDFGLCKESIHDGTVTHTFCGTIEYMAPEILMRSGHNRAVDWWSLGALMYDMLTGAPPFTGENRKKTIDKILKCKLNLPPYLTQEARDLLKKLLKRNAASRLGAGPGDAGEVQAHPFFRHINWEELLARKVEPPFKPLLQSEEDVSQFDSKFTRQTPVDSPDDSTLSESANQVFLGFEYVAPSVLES
Test: p70S6 kinase assay, Luciferase-Coupled Chemiluminescent Kinase assay (LCCA)
Details: 5 μM ATP, 12 nM p70S6K; read-out: p70S6K inhibition IC50
QUANTITY NAME: IC50

MOLECULE	READOUT VALUE
Brc1n[nH]c2ncnc(N3CCN(Cc4ncc[nH]4)CC3)c12 [Entry 52]	50 to 500 nM
CN(C)c1ccc(CN(C)C(c2ccc(F)cc2)C2CCN(c3ncnc4[nH]nc(Br)c34)CC2)cc1 (stereo not drawn) [Entry 98]	< 50 nM
Clc1ccc(CN2CCN(c3ncnc4[nH]nc(Br)c34)CC2)c(Cl)c1 [Entry 47]	< 50 nM
CCN(CC)CCCN(c1ccc(Cl)cc1)C1CCN(c2ncnc3[nH]nc(Br)c23)CC1 [Entry 10]	< 50 nM
CN(Cc1ccco1)C(c1ccc(F)cc1)C1CCN(c2ncnc3[nH]nc(Br)c23)CC1 (stereo not drawn) [Entry 96]	50 to 500 nM
Brc1n[nH]c2ncnc(N3CCN(Cc4cccc5ccccc45)CC3)c12 [Entry 63]	50 to 500 nM
Brc1n[nH]c2ncnc(N3CCN(Cc4ccncc4)CC3)c12 [Entry 58]	50 to 500 nM
CN(C)CCOC(=O)N(c1ccc(Cl)cc1)C1CCN(c2ncnc3[nH]nc(Br)c23)CC1 [Entry 15]	< 50 nM
O=C(/C=C/c1ccccc1)N1CCN(c2ncnc3[nH]nc(Br)c23)CC1 [Entry 43]	< 50 nM
OC(c1ccc(F)cc1)C1CCN(c2ncnc3[nH]nc(Br)c23)CC1 (stereo not drawn) [Entry 22]	< 50 nM
COCCN1CCN(c2ncnc3[nH]nc(Br)c23)CC1 [Entry 74]	500 to 2000 nM
Fc1cc(Cl)ccc1CN1CCN(c2ncnc3[nH]nc(Br)c23)CC1 [Entry 17]	< 50 nM
Brc1n[nH]c2ncnc(N3CCN(Cc4ccc(OCc5ccccc5)cc4)CC3)c12 [Entry 79]	> 2000 nM
O=C(c1ccc2cc[nH]c2c1)N1CCN(c2ncnc3[nH]nc(Br)c23)CC1 [Entry 67]	500 to 2000 nM
Clc1ccc([C@H](OCCN2CCOCC2)C2CCN(c3ncnc4[nH]nc(Br)c34)CC2)cc1 [Entry 95]	< 50 nM
CCN(CC)CCCNC(=O)C1(c2ccc(Cl)cc2)CCN(c2ncnc3[nH]nc(Br)c23)CC1 [Entry 49]	< 50 nM
Clc1ccc(-c2ccc(CN3CCN(c4ncnc5[nH]nc(Br)c45)CC3)o2)cc1 [Entry 64]	500 to 2000 nM
OC(c1ccc(Cl)cc1)C1CCN(c2ncnc3[nH]nc(Br)c23)CC1 (stereo not drawn) [Entry 1]	< 50 nM

* * *

Molecular target: human Akt1 kinase (kinase domain residues R144-A480, activated with PDK1) (Homo sapiens)
Sequence (P31749 144-480): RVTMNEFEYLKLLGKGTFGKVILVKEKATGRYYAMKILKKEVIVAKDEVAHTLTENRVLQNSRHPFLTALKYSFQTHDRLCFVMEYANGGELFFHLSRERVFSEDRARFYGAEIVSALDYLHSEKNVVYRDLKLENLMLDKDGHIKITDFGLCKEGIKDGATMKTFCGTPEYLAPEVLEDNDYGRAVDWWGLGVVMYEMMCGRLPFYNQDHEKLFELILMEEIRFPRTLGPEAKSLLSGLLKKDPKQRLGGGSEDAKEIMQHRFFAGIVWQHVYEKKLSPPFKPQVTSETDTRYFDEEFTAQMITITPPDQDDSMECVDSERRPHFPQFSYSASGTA
Assay: Akt1 kinase assay, Luciferase-Coupled Chemiluminescent Kinase assay (LCCA)
Details: 1 μM ATP, 1.3 nM Akt1; read-out: Akt-1 inhibition IC50

COMPOUND	IC50
Brc1n[nH]c2ncnc(N3CCN(Cc4ccncc4)CC3)c12	> 2000 nM
Clc1ccc(CN2CCN(c3ncnc4[nH]nc(Br)c34)CC2)cc1	50 to 500 nM
Brc1n[nH]c2ncnc(N3CCN(CC4CCCCC4)CC3)c12	> 2000 nM
CN(C)c1ccc(CN(C)C(c2ccc(F)cc2)C2CCN(c3ncnc4[nH]nc(Br)c34)CC2)cc1 (stereo not drawn)	50 to 500 nM
CN(C)CCNC(=O)NC(c1ccc(Cl)cc1)C1CCN(c2ncnc3[nH]nc(Br)c23)CC1 (stereo not drawn)	< 50 nM
COc1ccc(CN2CCN(c3ncnc4[nH]nc(Br)c34)CC2)c(OC)c1OC	> 2000 nM
Clc1ccc(OC2CCN(c3ncnc4[nH]nc(Br)c34)CC2)c(NCCN2CCCC2)c1	50 to 500 nM
Clc1ccc(CN2CCN(c3ncnc4[nH]nc(Br)c34)CC2)cc1Cl	50 to 500 nM
O=C(CN1CCN(c2ncnc3[nH]nc(Br)c23)CC1)N1CCOCC1	> 2000 nM
